Measured GI50 accompanies every entry in the list below.
tested on: U-251; experiment: NCI tumour cell line growth inhibition, 48 h
Active and inactive are the calls of the source. Cut-off read from the data, not from the text of the source: active = GI50 up to about 1.1 µM and inactive = higher.

Here are 5 molecules together with their reported answers.
MOLECULE	GI50
Cc1ccc2ccc(-c3ccccc3)c3c2c1C(=O)c1ccccc1C3=O	> 100 µM (inactive)
Cc1nc2sc(CCl)nn2c(=O)c1Cl	6.08 µM (inactive)
O=C1NC(=S)NC(=O)C1C(c1ccc(Cl)cc1)C1C(=O)NC(=S)NC1=O.c1ccncc1	> 100 µM (inactive)
Cc1cccc(C)c1NC(=S)N/C=C(\C#N)C(N)=O	> 100 µM (inactive)
O=C1c2ccccc2C(=O)c2[nH]cnc21	73.8 µM (inactive)

Which measured GI50 value corresponds to O1C2C1C1OC1C1OC1C1OC21 (stereo unspecified) ? > 100 µM (inactive)

Which measured GI50 value corresponds to CC1(C)CCC[C@@]2(C)C1CC[C@@]1(CO1)[C@@H]2/C=C\C(C=O)CC=O (stereo partly specified) ? > 96.6 µM (inactive)

Which measured GI50 value corresponds to CCOC(=O)C(NC(=O)CC)(Nc1cc(C)on1)C(F)(F)F (stereo unspecified) ? > 100 µM (inactive)

Which measured GI50 value corresponds to c1ccc(CSC(SCc2ccccc2)c2ccc3c(c2)OCO3)cc1 ? > 10 µM (inactive)

Which measured GI50 value corresponds to N#Cc1nc(Cc2cccs2)oc1N ? > 100 µM (inactive)

Which measured GI50 value corresponds to CC(=O)O[C@H]1CCC2[C@@H]3CCC4=C(O)c5nocc5C[C@]4(C)C3CC[C@@]21C (stereo partly specified) ? > 100 µM (inactive)

----------
tested on: SR; assay: NCI tumour cell line growth inhibition, 48 h
The source made the active and inactive calls. Rule as the data show it: active = GI50 up to about 1.1 µM and inactive = higher.
The categories you may choose from are active, inactive

MOLECULE	TEST_TARGET	ANSWER_LABEL
O=c1c(O)c(-c2ccc(O)c(O)c2)oc2cc(O)cc(O)c12	SR	inactive

State the result this test recorded for N#Cc1ccc(Sc2ccccc2)cc1C#N . inactive

State the result this test recorded for COC(=O)C(CC(=O)c1ccccc1)c1ccccc1NC(C)=O (stereo unspecified) . inactive

State the result this test recorded for COP(=O)(OC)/C(=C\c1cn(C(c2ccccc2)(c2ccccc2)c2ccccc2)cn1)NC(C)=O . inactive

State the result this test recorded for Cc1ccc(/C=N/Nc2nncc3ccccc23)s1 . inactive

State the result this test recorded for N#Cc1ncn(CCO)c1N . inactive

State the result this test recorded for CCCCCCCCCCCC/C=C\CC[C@@H](O)[C@H](O)CC[C@H](O)[C@@H]1CC[C@@H](CCCCCCCC2=C[C@H](C)OC2=O)O1 . inactive

State the result this test recorded for COc1ccc(/C=C/NC=O)cc1 . inactive

State the result this test recorded for COc1ccc(-c2cc(O)c3cc(OC)ccc3n2)cc1 . inactive

State the result this test recorded for N#CC(C#N)=Cc1c[nH]c(=O)[nH]c1=O . active

State the result this test recorded for COc1ccc2nc(C(=O)c3ccccc3)c(C)cc2c1 . inactive

----------
tested on: MDA-N; experiment: NCI tumour cell line growth inhibition, 48 h
Calls of active or inactive are those of the source. No stated cut-off is given here; in the data, active = GI50 up to about 1.1 µM and inactive = higher.
Measured GI50 accompanies every entry in the list below.

COMPOUND	GI50
C=C(C(=O)O)[C@@H]1C[C@@H](OC(C)=O)[C@]2(C)CC/C=C(\C)CCC[C@H](C)[C@H](O)[C@@H]1O2	24.5 µM (inactive)
Nc1ncnc2c1nc(-c1ccccc1)n2C1OC(CO)C(O)C1O (stereo not drawn)	> 100 µM (inactive)

Which measured GI50 value corresponds to O=C1c2ccccc2CC12Cc1ccc3c(c1C2=O)CCCC3 (stereo not drawn) ? 6.35 µM (inactive)

Which measured GI50 value corresponds to N=C(N)Nc1ccc(CC(N)NCC(=O)O)cc1 (stereo not drawn) ? > 25 µM (inactive)

Which measured GI50 value corresponds to C/C=C1\CN2CCC34c5ccccc5N(C)C35OCC4(C(=O)OC)C1CC25 (stereo not drawn) ? 46.5 µM (inactive)

Which measured GI50 value corresponds to COc1cc(OC)c2nc3occc3c(OC)c2c1 ? > 100 µM (inactive)

Which measured GI50 value corresponds to [N-]=[N+]=CC(=O)CCC(=O)N(c1ccccc1)c1ccccc1 ? > 10 µM (inactive)

Which measured GI50 value corresponds to COc1ccc(C(OCC2OC(n3ccc(NC(=O)c4ccccc4)nc3=O)C(O)C2O)(c2ccccc2)c2ccccc2)cc1 (stereo not drawn) ? 1.92 µM (inactive)

Which measured GI50 value corresponds to COc1ccccc1NC(=O)/C(Cc1nc2ccc([N+](=O)[O-])cc2nc1O)=N\NC(=O)C[N+](C)(C)C ? 14.9 µM (inactive)

Which measured GI50 value corresponds to C/C=C(\C)C(=O)OC1/C=C(\C)CC/C=C(\C)CC2OC(=O)C(C)(OC(C)=O)C12 (stereo not drawn) ? > 100 µM (inactive)

Which measured GI50 value corresponds to O=C1CCSc2c(cnc3ccccc23)N1 ? > 100 µM (inactive)
